Values were extracted from PubChem BioAssay (NCI).

Catalogue of TGI values
# Test system: DU-145 prostate
# MEASUREMENT_NOTES: NCI tumour cell line growth inhibition, 48 h
TEST_READOUT: TGI

[[record]]
compound_structure = "Oc1cc(-c2ccccc2)cn2c1nc1ccccc12"
measured_result = "> 31.6 µM"

[[record]]
compound_structure = "Cc1ccc2ccccc2c1NC1=NCCO1"
measured_result = "> 100 µM"

[[record]]
compound_structure = "c1ccc(Cc2nc(Cc3n[nH]c(Cc4ccccc4)n3)n[nH]2)cc1"
measured_result = "> 100 µM"

[[record]]
compound_structure = "Oc1cc(Br)cc2cccnc12"
measured_result = "> 100 µM"

[[record]]
compound_structure = "COc1c(C)c2c(c(=O)c3c(C)cccc3n2C)c2c1c(=O)c1c(C)cccc1n2C"
measured_result = "> 10 µM"

[[record]]
compound_structure = "CS/C1=C(\\c2ccc(C)cc2)N(c2ccccc2)C(=O)C(=O)N(c2ccccc2)/C(c2ccc(C)cc2)=C(/SC)SS1"
measured_result = "> 100 µM"

